Would you kindly list melting point for each of these molecules?

Observe how each entry below is paired with its result.
CCc1cnc2c(c1)c(C#N)c(-c1ccc(S(=O)(=O)N[C@@H](C)C(F)(F)F)cn1)n2-c1cccc(F)c1 = 195 to 197 °C
Cc1ccc2c(C#N)c(-c3ccc(S(=O)(=O)N[C@@H](C)C(F)(F)F)cc3)n(C3CCC3)c2n1 = 169 to 177 °C
C[C@@H](NS(=O)(=O)c1cnc(-c2c(C#N)c3ccc(C4CC4)nc3n2C2CCC2)nc1)C(F)(F)F = 244 to 249 °C
COc1cnc2c(c1)c(C#N)c(-c1ncc(S(=O)(=O)N[C@@H](C)C(F)(F)F)cn1)n2C1CCC1 = 193 to 196 °C

Hi, could you look up melting point for each item in my list?
1. COc1cnc2c(c1)c(C#N)c(-c1ncc(S(=O)(=O)NC(CF)CF)cn1)n2C1CCC1
2. Cc1cnc2c(c1)c(C#N)c(-c1ccc(S(=O)(=O)N[C@@H](C)C(F)(F)F)cn1)n2-c1ncccn1
3. CC(C)NS(=O)(=O)c1cnc(-c2c(C#N)c3cc(Cl)cnc3n2C2CCC2)nc1
4. CC(C)(NS(=O)(=O)c1ccc(-c2c(C(N)=O)c3cc(C(F)(F)F)cnc3n2C2CCCC2)nc1)C(F)(F)F

Result ::
1. 194 to 196 °C
2. 221 to 223 °C
3. 224 to 225 °C
4. 244 to 246 °C

Hi, could you look up melting point for each item in my list?
1. Cc1cnc2c(C#N)c(-c3ncc(S(=O)(=O)NC(C)C)cn3)n(C3CCC3)c2c1
2. CC(C)(NS(=O)(=O)c1ccc(-c2c(C#N)c3cc(Cl)cnc3n2C2CCC2)nc1)C(F)(F)F
3. CC(C)(C)NS(=O)(=O)c1ccc(-c2c(C(N)=O)c3cc(C(F)(F)F)cnc3n2C2CCC2)cc1
4. Cc1ccc2c(C#N)c(-c3ccc(S(=O)(=O)NC4(C)CC4)cc3)n(C3CCC3)c2n1
5. C[C@@H](NS(=O)(=O)c1ccc(-c2c(C#N)c3cc(-c4cccs4)cnc3n2C2CCC2)nc1)C(F)(F)F

Result ::
278 to 280 °C
221 to 222 °C
255 to 257 °C
200 to 207 °C
198 to 199 °C

Hi, could you look up melting point for each item in my list?
1. CCc1cnc2c(c1)c(C#N)c(-c1ccc(S(=O)(=O)N[C@@H](C)C(F)(F)F)cn1)n2-c1cccs1
2. COc1cnc2c(c1)c(C#N)c(-c1ccc(S(=O)(=O)NC3(C)CC3)cn1)n2C1CCC1
3. CC(C)(C)NS(=O)(=O)c1ccc(-c2c(C(N)=O)c3cc(Cl)cnc3n2C2CCC2)nc1

Result ::
169 to 171 °C
179 to 181 °C
240 to 241 °C

Entry source: patent US9593108B2
